The values you see were collected from paper PMC8634879.

# TARGET_ENTITY: RalA (Homo sapiens)
# Construct: expressed in transfected cells; host or cells: HepG2 (from b6; the methods paragraph names no cell line)
# Sequence (P11233 1-203 limits assumed): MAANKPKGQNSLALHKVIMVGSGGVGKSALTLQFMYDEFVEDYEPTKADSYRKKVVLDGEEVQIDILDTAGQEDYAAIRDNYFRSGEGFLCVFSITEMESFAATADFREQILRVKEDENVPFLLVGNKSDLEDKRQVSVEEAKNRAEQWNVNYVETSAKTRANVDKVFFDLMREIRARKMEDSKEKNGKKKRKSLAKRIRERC
# METHOD: ELISA-based RalA activity assay (RalBP1-coated plates, lysates of compound-treated cells)
# Type: biochemical
# APPLIED_CONDITIONS: 1 μM compound; % control = activity remained
Reported remaining activity at 1 µM values are given for each entry in this list.

Known results for compounds:
Cc1ccc(S(=O)(=O)NC2=C(C#N)C(c3ccc(Br)cc3F)c3c(C)nn(-c4ccccc4)c3O2)cc1 (stereo not shown); 70%
COc1ccc(C2C(C#N)=C(NS(=O)(=O)c3ccc(C)cc3)Oc3c2c(C)nn3-c2ccccc2)cc1 (stereo not shown); 69%
Cc1ccc(S(=O)(=O)NC2=C(C#N)C(c3cccnc3)c3c(C)nn(-c4ccccc4Cl)c3O2)cc1 (stereo not shown); 46%
Cc1ccc(S(=O)(=O)NC2=C(C#N)C(c3ccco3)c3c(C)nn(-c4ccccc4Cl)c3O2)cc1 (stereo not shown); 48%
Cc1ccc(S(=O)(=O)NC2=C(C#N)C(c3ccsc3)c3c(C)nn(-c4ccccc4)c3O2)cc1 (stereo not shown); 45%
COc1cccc(C2C(C#N)=C(NS(=O)(=O)c3ccccc3[N+](=O)[O-])Oc3c2c(C)nn3-c2ccccc2Cl)c1 (stereo not shown); 53%
Cc1nn(-c2ccccc2)c2c1C(c1ccc(C(F)(F)F)cc1)C(C#N)=C(NS(=O)(=O)c1cccs1)O2 (stereo not shown); 36%
Cc1ccc(S(=O)(=O)NC2=C(C#N)C(c3ccncc3)c3c(C)nn(-c4ccccc4)c3O2)cc1 (stereo not shown); 40%
COc1cccc(C2C(C#N)=C(NS(=O)(=O)c3ccc(C)cc3)Oc3c2c(C)nn3-c2ccccc2Cl)c1 (stereo not shown); 51%
Cc1ccc(S(=O)(=O)NC2=C(C#N)C(c3ccccc3)c3c(C)nn(-c4ccccc4Cl)c3O2)cc1 (stereo not shown); 52%

// below: remaining activity at 1 µM requested for another compound
# lookup: remaining activity at 1 µM of Cc1ccc(S(=O)(=O)NC2=C(C#N)C(c3ccc(Br)cc3)c3c(C)nn(-c4ccccc4)c3O2)cc1 (stereo not shown) 77%
